Every entry's value here was drawn from patent US8269024B2.

Biological target: LasR (Pseudomonas aeruginosa, UniProt P25084)
Construct: Both of these reporter strains lack their native AHL synthases, yet retain active LuxR-type receptors (LasR and TraR proteins, respectively); endogenous in cells; host or cells: P. aeruginosa PAO-JP2(plasI-LVAgfp)
Sequence (P25084 whole entry): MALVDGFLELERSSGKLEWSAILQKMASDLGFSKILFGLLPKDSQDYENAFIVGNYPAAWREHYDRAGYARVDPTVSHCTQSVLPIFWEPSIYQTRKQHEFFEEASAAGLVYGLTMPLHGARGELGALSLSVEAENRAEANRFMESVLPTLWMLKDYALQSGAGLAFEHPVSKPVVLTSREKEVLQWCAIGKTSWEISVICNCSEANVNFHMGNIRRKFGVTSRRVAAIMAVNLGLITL
Assay: Pseudomonas aeruginosa reporter gene assay, PAO-JP2(plasI-LVAgfp), GFP fluorescence readout
Format: cell-based
Lab note: cut-off is 50 µM. Strictly less in IC50 is label 1. Exactly 50 µM or more is label 0.

>>> df
                                   molecule                              assay_target  label_value
0  CCCCCCCCCC(=O)CC(=O)Nc1ccccc1O [Compound 9, reference compound]  LasR (Pseudomonas aeruginosa, UniProt P25084)      label 1
1  O=C(CC1C=CCC1)N[C@H]1CCOC1=O (some centres unmarked)  LasR (Pseudomonas aeruginosa, UniProt P25084)      label 1
2  O=C(CC(=O)N[C@H]1CCOC1=O)Cc1ccccc1 [Compound 8f, reference compound]  LasR (Pseudomonas aeruginosa, UniProt P25084)      label 0
3   O=C(CCCc1c[nH]c2ccccc12)N[C@@H]1CCOC1=O  LasR (Pseudomonas aeruginosa, UniProt P25084)      label 1

----------
Target: LasR (Pseudomonas aeruginosa, UniProt P25084)
Construct: Both of these reporter strains lack their native AHL synthases, yet retain active LuxR-type receptors (LasR and TraR proteins, respectively); endogenous in cells; host or cells: P. aeruginosa PAO-JP2(plasI-LVAgfp)
Experiment: Pseudomonas aeruginosa reporter gene assay, PAO-JP2(plasI-LVAgfp), GFP fluorescence readout
Assay type: cell-based
Details: screened against 1 μM 8d; sigmoidal dose-response curve fit; read-out: P. aeruginosa IC50
reported_metric: IC50 (µM)

In [3]: df
Out[3]:
                                   molecule  reported_metric  test_value
0  O=C(Cc1ccc(Br)cc1)N[C@H]1CCOC1=O [Compound 7o]             IC50        16.1

----------
Target: LasR (Pseudomonas aeruginosa, UniProt P25084)
Construct: Both of these reporter strains lack their native AHL synthases, yet retain active LuxR-type receptors (LasR and TraR proteins, respectively); endogenous in cells; host or cells: P. aeruginosa PAO-JP2(plasI-LVAgfp)
Experiment: Pseudomonas aeruginosa reporter gene assay, PAO-JP2(plasI-LVAgfp), GFP fluorescence readout
Assay type: cell-based
Conditions: antagonism; compound at 400 μM screened against 1 μM 8d; relative to agonism by 8d at 1 μM set to 100%
reported_metric: P. aeruginosa Relative fluorescence [%] 400 μM (%)

>>> df
                                   compound  test_value
0          O=C(Cc1ccc(Br)cc1)N[C@H]1CCOC1=O          14
1  CCCCCCCCCC(=O)CC(=O)Nc1ccccc1O [Compound 9, reference compound]          23
2  O=C(CC(=O)N[C@H]1CCOC1=O)Cc1ccccc1 [Compound 8f, reference compound]          27
3  CCCCCCC(=O)N[C@H]1CCOC1=O [Compound 7g, N-heptanoyl-L-homoserine lactone, reference compound]          29
4  O=C(CC1C=CCC1)N[C@H]1CCOC1=O (stereo partly drawn)          24
5   O=C(CCCc1c[nH]c2ccccc12)N[C@@H]1CCOC1=O          14

----------
Molecular target: TraR (Agrobacterium tumefaciens)
Construct: Both of these reporter strains lack their native AHL synthases, yet retain active LuxR-type receptors (LasR and TraR proteins, respectively); endogenous in cells; host or cells: A. tumefaciens WCF47(pCF372)
Test: Agrobacterium tumefaciens reporter gene assay, WCF47(pCF372), β-galactosidase (Miller) readout
Type: cell-based
Details: antagonism; compound at 100 nM screened against 100 nM 8b; strain WCF47(pCF372)
reported_metric: A. tumefaciens β-galactosidase activity [Miller units] 100 nM (Miller units)

In [3]: df
Out[3]:
                                   molecule                      assay_target  test_value
0  CCCCCCCCCC(=O)CC(=O)Nc1ccccc1O [Compound 9, reference compound]  TraR (Agrobacterium tumefaciens)         396
1   O=C(CCCc1c[nH]c2ccccc12)N[C@@H]1CCOC1=O  TraR (Agrobacterium tumefaciens)         245
2  CCCCCCC(=O)N[C@H]1CCOC1=O [Compound 7g, N-heptanoyl-L-homoserine lactone, reference compound]  TraR (Agrobacterium tumefaciens)         226
3  O=C(CC1C=CCC1)N[C@H]1CCOC1=O (stereo partly drawn)  TraR (Agrobacterium tumefaciens)         306
4  O=C(CC(=O)N[C@H]1CCOC1=O)Cc1ccccc1 [Compound 8f, reference compound]  TraR (Agrobacterium tumefaciens)         310
5          O=C(Cc1ccc(Br)cc1)N[C@H]1CCOC1=O  TraR (Agrobacterium tumefaciens)         193

----------
Molecular target: LasR (Pseudomonas aeruginosa)
Construct: Both of these reporter strains lack their native AHL synthases, yet retain active LuxR-type receptors (LasR and TraR proteins, respectively); endogenous in cells; host or cells: P. aeruginosa PAO-JP2(plasI-LVAgfp)
Test: Pseudomonas aeruginosa reporter gene assay, PAO-JP2(plasI-LVAgfp), GFP fluorescence readout
Format: cell-based
Details: antagonism; compound at 12.5 μM screened against 1 μM 8d; relative to agonism by 8d at 1 μM set to 100%
Binary call on P. aeruginosa Relative fluorescence [%] 12.5 μM: Fulfilled from 70% upward, Not fulfilled beneath that.

In [3]: df
Out[3]:
                                   molecule    label_value
0  CCCCCCC(=O)N[C@H]1CCOC1=O [Compound 7g, N-heptanoyl-L-homoserine lactone, reference compound]      Fulfilled
1  O=C(CC(=O)N[C@H]1CCOC1=O)Cc1ccccc1 [Compound 8f, reference compound]      Fulfilled
2  CCCCCCCCCC(=O)CC(=O)Nc1ccccc1O [Compound 9, reference compound]  Not fulfilled
3          O=C(Cc1ccc(Br)cc1)N[C@H]1CCOC1=O  Not fulfilled
4   O=C(CCCc1c[nH]c2ccccc12)N[C@@H]1CCOC1=O  Not fulfilled

----------
Target: TraR (Agrobacterium tumefaciens, UniProt P33905)
Construct: Both of these reporter strains lack their native AHL synthases, yet retain active LuxR-type receptors (LasR and TraR proteins, respectively); endogenous in cells; host or cells: A. tumefaciens WCF47(pCF372)
Sequence (P33905 whole entry): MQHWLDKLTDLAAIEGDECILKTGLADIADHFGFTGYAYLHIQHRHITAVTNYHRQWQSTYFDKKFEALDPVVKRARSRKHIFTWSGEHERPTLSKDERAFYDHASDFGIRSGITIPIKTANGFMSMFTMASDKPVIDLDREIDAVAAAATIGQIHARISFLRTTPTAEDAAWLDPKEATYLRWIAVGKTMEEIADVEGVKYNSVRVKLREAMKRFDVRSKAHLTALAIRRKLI
Assay: Agrobacterium tumefaciens reporter gene assay, WCF47(pCF372), β-galactosidase (Miller) readout
Type: cell-based
reported_metric: IC50 (nM)

                                   compound                              assay_target  reported_metric  measurement_units  test_value
0   O=C(CCCc1c[nH]c2ccccc12)N[C@@H]1CCOC1=O  TraR (Agrobacterium tumefaciens, UniProt P33905)             IC50                 nM        1100
1  O=C(CC(=O)N[C@H]1CCOC1=O)Cc1ccccc1 [Compound 8f, reference compound]  TraR (Agrobacterium tumefaciens, UniProt P33905)             IC50                 nM         590
2  CCCCCCC(=O)N[C@H]1CCOC1=O [Compound 7g, N-heptanoyl-L-homoserine lactone, reference compound]  TraR (Agrobacterium tumefaciens, UniProt P33905)             IC50                 nM         130
3  O=C(CC1C=CCC1)N[C@H]1CCOC1=O (some centres unmarked)  TraR (Agrobacterium tumefaciens, UniProt P33905)             IC50                 nM        1000
4  CCCCCCCCCC(=O)CC(=O)Nc1ccccc1O [Compound 9, reference compound]  TraR (Agrobacterium tumefaciens, UniProt P33905)             IC50                 nM        4700

----------
Molecular target: TraR (Agrobacterium tumefaciens, UniProt P33905)
Construct: Both of these reporter strains lack their native AHL synthases, yet retain active LuxR-type receptors (LasR and TraR proteins, respectively); endogenous in cells; host or cells: A. tumefaciens WCF47(pCF372)
Experiment: Agrobacterium tumefaciens reporter gene assay, WCF47(pCF372), β-galactosidase (Miller) readout
Type: cell-based
Details: antagonism; compound at 10^4 nM screened against 100 nM 8b; strain WCF47(pCF372)
reported_metric: A. tumefaciens β-galactosidase activity [Miller units] 10^4 nM (Miller units)

                                   compound  measurement_units  test_value
0  O=C(CC(=O)N[C@H]1CCOC1=O)Cc1ccccc1 [Compound 8f, reference compound]       Miller units          51
1  CCCCCCCCCC(=O)CC(=O)Nc1ccccc1O [Compound 9, reference compound]       Miller units         186
2  O=C(CCCc1c[nH]c2ccccc12)N[C@@H]1CCOC1=O [Compound 7h]       Miller units         150
3  O=C(CC1C=CCC1)N[C@H]1CCOC1=O (stereo partly drawn) [Compound 7k]       Miller units          19
4  CCCCCCC(=O)N[C@H]1CCOC1=O [Compound 7g, N-heptanoyl-L-homoserine lactone, reference compound]       Miller units          34
5  O=C(Cc1ccc(Br)cc1)N[C@H]1CCOC1=O [Compound 7o]       Miller units           0
